Test system: classical complement pathway
Assay method text: In vitro haemolysis assay (inhibition of classical complement pathway)
Format: cell-based, human
Test settings: Table 4; valine 3 versus isoleucine 3 pairs; read-out: CP hemolysis IC50
Positions of bridges follow the written chain, without caps; N, C: chain ends. Residues, ends and D or L forms follow the SMILES beside them.
Observable: IC50 (nM)
# value in nM; strip the unit string

CC[C@H](C)[C@H](NC(C)=O)C(=O)N[C@H]1CSSC[C@@H](C(=O)N[C@H](C(N)=O)[C@@H](C)O)NC(=O)[C@H](CO)NC(=O)[C@H](Cc2c[nH]cn2)NC(=O)[C@H](C)NC(=O)CNC(=O)[C@H](Cc2c[nH]c3ccccc23)NC(=O)[C@H](CC(=O)O)NC(=O)[C@H](CCC(N)=O)NC(=O)[C@H](Cc2c[nH]c3ccccc23)NC(=O)[C@H]([C@@H](C)CC)NC1=O [Compound 19] (Ac-ICIWQDWGAHSCT-NH2; disulfide 2-12)
140

Which IC50 value is on record for CC[C@H](C)[C@H](NC(C)=O)C(=O)N[C@H]1CSSC[C@@H](C(=O)N[C@H](C(N)=O)[C@@H](C)O)NC(=O)[C@H](CCCNC(=N)N)NC(=O)[C@H](Cc2c[nH]cn2)NC(=O)[C@H](CO)NC(=O)CNC(=O)[C@H](Cc2c[nH]c3ccccc23)NC(=O)[C@H](CC(=O)O)NC(=O)[C@H](CCC(N)=O)NC(=O)[C@H](Cc2c[nH]c3ccccc23)NC(=O)[C@H]([C@@H](C)CC)NC1=O [Compound 6] (Ac-ICIWQDWGSHRCT-NH2; disulfide 2-12) ? 140

What do you have for CC[C@H](C)[C@H](NC(C)=O)C(=O)N[C@H]1CSSC[C@@H](C(=O)N[C@H](C(N)=O)[C@@H](C)O)NC(=O)[C@H](CO)NC(=O)[C@H](Cc2c[nH]cn2)NC(=O)[C@H](CCC(=O)O)NC(=O)CNC(=O)[C@H](Cc2c[nH]c3ccccc23)NC(=O)[C@H](CC(=O)O)NC(=O)[C@H](CCC(N)=O)NC(=O)[C@H](Cc2c[nH]c3ccccc23)NC(=O)[C@H]([C@@H](C)CC)NC1=O [Compound 20] (Ac-ICIWQDWGEHSCT-NH2; disulfide 2-12) ? 59

Moving on to the next molecule: CC[C@H](C)[C@H](NC(C)=O)C(=O)N[C@H]1CSSC[C@@H](C(=O)N[C@@H](CO)C(N)=O)NC(=O)[C@H](CCCNC(=N)N)NC(=O)[C@H](Cc2c[nH]cn2)NC(=O)[C@H](CCC(=O)O)NC(=O)CNC(=O)[C@H](Cc2c[nH]c3ccccc23)NC(=O)[C@H](CC(=O)O)NC(=O)[C@H](CCC(N)=O)NC(=O)[C@H](Cc2c[nH]c3ccccc23)NC(=O)[C@H]([C@@H](C)CC)NC1=O [Compound 21] (Ac-ICIWQDWGEHRCS-NH2; disulfide 2-12) 77

* * *

Assay method text: in vivo
Parameters: species or system Cynomolgus monkeys (Macaca fascicularis)
Test settings: male, cynomolgus monkey, sc, 1840 nmol/kg, t½
Observable: half-life (h)
Write down the numeric answer in h and omit the unit.

Item CC[C@H](C)[C@H](NC(=O)[C@H](N)Cc1ccc(O)cc1)C(=O)N[C@H]1CSSC[C@@H](C(=O)N(C)[C@H](C(N)=O)[C@@H](C)CC)NC(=O)[C@H](CCCNC(=N)N)NC(=O)[C@H](Cc2c[nH]cn2)NC(=O)[C@H](C)NC(=O)CN(C)C(=O)[C@H](Cc2c[nH]c3ccccc23)NC(=O)[C@H](CC(=O)O)NC(=O)[C@H](CCC(N)=O)NC(=O)[C@H](Cc2cn(C)c3ccccc23)NC(=O)[C@H](C(C)C)NC1=O [Cp40, reference compound] has what recorded half-life? 31.8
